experiment: PK of compound of Formula (Ia) after single subcutaneous dose of solution formulations in Wistar Han rats; type: in vivo; details: male, Wistar Han, rat, plasma, sc, 50 mg/kg, Wistar Han rats, SC 50 mg/kg, 400 mg/mL solution AA (6.25% poloxamer 188), 672 h, Mean n = 4
Measure name: concentration at 672 h
Mention the unit after the number when you answer.

Determine its reported concentration at 672 h: `CC(C)(C#Cc1ccc(-c2ccc(Cl)c3c(NS(C)(=O)=O)nn(CC(F)(F)F)c23)c([C@H](Cc2cc(F)cc(F)c2)NC(=O)Cn2nc(C(F)(F)F)c3c2C(F)(F)[C@@H]2C[C@H]32)n1)S(C)(=O)=O` 0.117 µM

FYI, the data here is from patent US11807625B2.
